- assayed-target: SHOC2
- assay-notes: pooled miR-30 sensor sort-seq; sequence = guide strand; further: reference of the scale not given here
- recorded-conditions: shRNA
Measured sensor-assay potency score (higher = more potent) by item
Form rule: numeric answer, no unit written next to it.

TATATCTAACTATACTACCTCT; -0.42
TGAATTTTCACTTAGAGCCAGT; -0.612
TATCTAACTATACTACCTCTGT; -0.264
TTCTCTTCTAGATCCAACTCTC; -0.213
TATGTGTATAGATCTCTTGGAT; -0.313
TTTGTTCTCTTCTAGATCCAAC; -0.823

Here is the next item to consider.
// lookup sensor-assay potency score (higher = more potent) for `TTTGATCGTATTGTCAACTGAA`
0.487

---

- assayed-target: DQX1
- assay-notes: pooled miR-30 sensor sort-seq; sequence = guide strand
- recorded-conditions: shRNA
Measured sensor-assay potency score (higher = more potent) by item
Form rule: numeric answer, no unit written next to it.

Sample records with sensor-assay potency score (higher = more potent):
TTCTGGAGCAGGCTGGTCCAGG; -1.18
TTTTAGTAGTAACACCAGGGAG; -0.895
TTGAATCTCAGAAACAATGGAA; 0.304
TATAAAGGCTTCATACACCTGG; 0.178
TAGTATGACACCCAGATCTGAC; -0.721
TTCAGCAGCTCATAGTAGCGGG; -0.681
TTGCTCGCAATCGTCTTGCCTC; -0.154
TTTAGTAGTAACACCAGGGAGC; -0.54

// lookup sensor-assay potency score (higher = more potent) for `TGAGTGACCACAACCTTTCGGG`
0.181

// lookup sensor-assay potency score (higher = more potent) for `TTCTGATAGTATGACACCCAGA`
-1.09

---

Measured sensor-assay potency score (higher = more potent) by item
- assayed-target: RASGEF1A
- assay-notes: pooled miR-30 sensor sort-seq; sequence = guide strand
- recorded-conditions: shRNA

Sample records with sensor-assay potency score (higher = more potent):
TTCAGGAGCTGCACGATCTTGG; -0.661
TAGGTCTTGGTCAGGTCCCCTC; -1
ATGAAGAACTCCAACATGCGGG; -0.48
TGAATCTTCTTGTCCTTCTCGA; 0.828
TGAAGAACTCCAACATGCGGGT; -0.41
AAACTTGGCTGTCTTGACCTTG; -0.781
TGTTTCTTCTTCACCACCCGGC; 0.377
AAGGTGAAGATGTACGTCCTAT; 0.212
TTGCAGAAGTTGCTGGACGGGT; -0.613

// lookup sensor-assay potency score (higher = more potent) for `AATCTTCTTGTCCTTCTCGAAA`
-1.91

---

Measured sensor-assay potency score (higher = more potent) by item
- assayed-target: MIER1
- assay-notes: pooled miR-30 sensor sort-seq; sequence = guide strand
- recorded-conditions: shRNA
Form rule: numeric answer, no unit written next to it.

Sample records with sensor-assay potency score (higher = more potent):
TAGTCGAACAGTACTACCATAA; -1.32
TATAATCTTCATCTTCTTCAGA; -0.137
ATCATCAAAATCATGAACCAGC; -0.377
TTAATATTTCACCTGGTCCATT; -1.02
TTCTTCTTTCCAAATCGTGTTT; -0.957

# value lookup — system MIER1, readout sensor-assay potency score (higher = more potent), item `TTATCTTCTGGTAAGTACTCAG`
-0.171

# value lookup — system MIER1, readout sensor-assay potency score (higher = more potent), item `TTGTGATGGATCATCATTGGAA`
-0.466

# value lookup — system MIER1, readout sensor-assay potency score (higher = more potent), item `TACTGTTTGATGCAGTTGGGGG`
-0.856

# value lookup — system MIER1, readout sensor-assay potency score (higher = more potent), item `TTCGTCTAGAAGACGATCCATG`
-1.5

# value lookup — system MIER1, readout sensor-assay potency score (higher = more potent), item `TATAATCACTTTATCTTCTGGT`
0.758

Provenance of the data: the OligoGym collection
